biological target: HS3ST2; assay: pooled miR-30 sensor sort-seq; sequence = guide strand; conditions: shRNA; note: reference of the scale not given here
I'd be grateful if you could share measured sensor-assay potency score (higher = more potent) for these entries.
Answers are plain numbers.

INSERT INTO assay_data (input_sequence, system_tested, test_value) VALUES
  ('TAACAGCAGAATTATGTGCTTT', 'HS3ST2', -0.0537),
  ('ATCGCTTATAATATCTATCATC', 'HS3ST2', -1.47),
  ('TAACACAGGTAAGTGCAGGAGA', 'HS3ST2', -0.326),
  ('ATAATATCTATCATCATTGGAA', 'HS3ST2', -0.218),
  ('TCTTGAGTGACAAAGTAGCTGG', 'HS3ST2', -0.586),
  ('TTATTTCACATGGACAAGCATG', 'HS3ST2', -1.23);

Batch lookup, sensor-assay potency score (higher = more potent) per entry.
1. TTGCTTGAACAGACTGATGAAA
2. TTGATTTGCCCAAGCATCGAGG
3. TTCTTGGAGAGTGTCTGCGTGT
4. TTGAGTGACAAAGTAGCTGGGC

Solution:
[-0.965, -0.341, -0.361, 0.674]

Exercise: Any idea what its sensor-assay potency score (higher = more potent) is? The sequence is TTGTCCGTGATGAATCTCTTAA
Solution: -1.07

----------
biological target: CD40; experiment: pooled miR-30 sensor sort-seq; sequence = guide strand; settings: shRNA
OUTCOME_MEASURE: sensor-assay potency score (higher = more potent)

Answered cases to consult:
INSERT INTO assay_data (input_sequence, test_value) VALUES
  ('TTCCGTTTCAGTGAACTCTGTG', 0.749),
  ('ATTAGGTACTGTTTTTCTCTGC', -0.104);

Provide sensor-assay potency score (higher = more potent) for all items below, preserving their order.
1. TCACTCACCAGTTTCTGTCCTG
2. TAGCAATCTGCTTGACCCCAAA

Solution:
[0.175, -1.28]

The following sequences each have a reported value; give each one's sensor-assay potency score (higher = more potent).
1. AAGAACAGCACTGACTGTTTAT
2. ACAAAGAACAGCACTGACTGTT
3. TCCGTTTCAGTGAACTCTGTGC

Solution:
1: -1.08; 2: 0.0373; 3: -0.4

----------
target: EBNA1BP2; assay: pooled miR-30 sensor sort-seq; sequence = guide strand; conditions: shRNA
Rule: sensor-assay potency score (higher = more potent) under -0.1 gives Condition not met, otherwise Condition met.

Before answering, review these 5 worked examples.
INSERT INTO measurements (input_sequence, discrete_label) VALUES
  ('ATAGAAACTCATCTCTCGCTGG', 'Condition met'),
  ('TTTCTTAATAGCATTCATCATA', 'Condition not met'),
  ('TATTTGACCCTTTCTTGCCAGG', 'Condition not met'),
  ('TACATCATCATAGCTCTCCCGA', 'Condition not met'),
  ('TTCATCTTCTCTCTTGTTCGTT', 'Condition met');

Let us examine a further case.
Exercise: Form field: sensor-assay potency score (higher = more potent) at least -0.1? Entry: TCATCTTCTCTCTTGTTCGTTT
Solution: Condition not met

----------
biological target: PAG1; assay: pooled miR-30 sensor sort-seq; sequence = guide strand; conditions: shRNA
Short version: sensor-assay potency score (higher = more potent) at least -0.7 is satisfied, less is not satisfied.

INSERT INTO measurements (input_sequence, discrete_label) VALUES
  ('TAAATTTCACATAACCTGCTAT', 'satisfied'),
  ('TTTTTTGTTTCTGTCCACCGAG', 'satisfied'),
  ('TTTTCTTTTCTATATAGCGTTT', 'not satisfied'),
  ('TTCTTGTGTAGTTATCTGCCTA', 'satisfied'),
  ('TTGCAAAATAATGACAACCAAC', 'not satisfied');

Exercise: Hi team, for TTAAACTGTAGCATTAGCTCAA , is the recorded sensor-assay potency score (higher = more potent) at or above -0.7?
Solution: satisfied
